- Tested on: LOC_OS01G13800-cb001;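 note: purified Escherichia coli-expressed rice kinase domain construct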
- protocol description: thermal shift delta Tm vs DMSO control; higher = stronger stabilization (binding)
- experimental parameters: 12.5 µM; protein concentration 2 µM
reported endpoint: thermal shift delta Tm (°C)
Answers are plain numbers, in °C.

Would you mind listing thermal shift delta Tm for each of the following compounds?
1. CCS(=O)(=O)N1CCN(c2ccc(Nc3ncc(C(N)=O)c(NC4CC4)n3)cc2)CC1
2. CCc1nc(C(N)=O)c(Nc2ccc(N3CCC(N4CCN(C)CC4)CC3)c(OC)c2)nc1NC1CCOCC1
3. CCN(CC)CCNC(=O)c1c(C)[nH]c(/C=C2\C(=O)Nc3ccc(-c4csc(-c5ccccc5)n4)cc32)c1C
4. CC(C)NC[C@@H](C(=O)N1CCN(c2ncnc3c2[C@H](C)C[C@H]3O)CC1)c1ccc(Cl)cc1
5. Nc1cccc(S(=O)(=O)N2CCCN(S(=O)(=O)c3ccc4c(c3)OCCO4)CC2)c1

Ans:
1: 0.55; 2: 0.93; 3: -0.01; 4: 0.07; 5: 0.22

Would you mind listing thermal shift delta Tm for each of the following compounds?
1. CCCS(=O)(=O)Nc1ccc(F)c(C(=O)c2c[nH]c3ncc(Cl)cc23)c1F
2. CCc1cc(Nc2nccc(-c3c(-c4ccc(OC)c(C(=O)Nc5c(F)cccc5F)c4)nc4ccccn34)n2)c(OC)cc1N1CCC(N2CCN(S(C)(=O)=O)CC2)CC1

Ans:
1. -0.05
2. 0.56
